Quick reference for IC50 among some binders
biological target: T1, recombinant P1R chimera expressed in HKRK-B28 cells (opossum P1R from the N-terminus to the mid region of … (opossum; rat, UniProt P25107 27-288; P25961 295-591, limits assumed); test: competition binding on B28 cells against 125I-PTH(1-21) tracer (SEQ ID NO 36)
T1 construct: domain: N-terminus to the mid region of TM3;domain: mid region of TM3 to the C-terminus; also called PTH-1 receptor; receptor of HKRK-B28 cells
T1 sequence (P25107 other isoform, or with tags, fused parts or gaps limits assumed): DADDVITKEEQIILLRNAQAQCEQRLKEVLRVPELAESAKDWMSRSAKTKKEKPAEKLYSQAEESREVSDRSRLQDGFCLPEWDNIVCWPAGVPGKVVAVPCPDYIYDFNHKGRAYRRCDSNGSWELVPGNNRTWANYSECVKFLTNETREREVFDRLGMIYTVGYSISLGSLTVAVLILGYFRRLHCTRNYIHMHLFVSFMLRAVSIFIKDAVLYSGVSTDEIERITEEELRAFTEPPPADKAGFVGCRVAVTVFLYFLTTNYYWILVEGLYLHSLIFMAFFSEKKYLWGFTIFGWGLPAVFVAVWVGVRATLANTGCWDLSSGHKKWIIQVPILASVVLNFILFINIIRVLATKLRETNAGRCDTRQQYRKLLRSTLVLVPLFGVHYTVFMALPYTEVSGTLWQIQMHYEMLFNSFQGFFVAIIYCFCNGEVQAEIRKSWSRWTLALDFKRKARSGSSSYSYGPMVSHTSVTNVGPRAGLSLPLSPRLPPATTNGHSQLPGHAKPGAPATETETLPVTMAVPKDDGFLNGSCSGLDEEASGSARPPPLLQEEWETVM
Non-standard residues stand in square brackets, D forms with d. No end group written: not given here. hArg = N=C(N)NCCCC[C@H](N)C(=O)O; Ac5c = NC1(C(=O)O)CCCC1; Deg = CCC(N)(CC)C(=O)O; Aib = CC(C)(N)C(=O)O

[
  {
    "binder": "H-AV[Deg]EIQLMHQ[hArg]AKW-NH2 (SMILES CC[C@H](C)[C@H](NC(=O)[C@H](CCC(=O)O)NC(=O)C(CC)(CC)NC(=O)[C@@H](NC(=O)[C@H](C)N)C(C)C)C(=O)N[C@@H](CCC(N)=O)C(=O)N[C@@H](CC(C)C)C(=O)N[C@@H](CCSC)C(=O)N[C@@H](Cc1c[nH]cn1)C(=O)N[C@@H](CCC(N)=O)C(=O)N[C@@H](CCCCNC(=N)N)C(=O)N[C@@H](C)C(=O)N[C@@H](CCCCN)C(=O)N[C@@H](Cc1c[nH]c2ccccc12)C(N)=O, also called Deg^3-containing analog; Deg-3) [[M]PTH(1-14) analog in which alanine-3 is substituted with α,α-diethylglycine (Deg)]",
    "IC50": "~3000 nM"
  },
  {
    "binder": "AV[Ac5c]EIQLMHQ[hArg]AKW-NH2 (N-terminus assumed; SMILES CC[C@H](C)[C@H](NC(=O)[C@H](CCC(=O)O)NC(=O)C1(NC(=O)[C@@H](NC(=O)[C@H](C)N)C(C)C)CCCC1)C(=O)N[C@@H](CCC(N)=O)C(=O)N[C@@H](CC(C)C)C(=O)N[C@@H](CCSC)C(=O)N[C@@H](Cc1c[nH]cn1)C(=O)N[C@@H](CCC(N)=O)C(=O)N[C@@H](CCCCNC(=N)N)C(=O)N[C@@H](C)C(=O)N[C@@H](CCCCN)C(=O)N[C@@H](Cc1c[nH]c2ccccc12)C(N)=O, also called Ac5c^3-containing analog; Ac5c-3)",
    "IC50": "~3000 nM"
  },
  {
    "binder": "AVAEIQLMHQ[hArg]AKW-NH2 (N-terminus assumed; SMILES CC[C@H](C)[C@H](NC(=O)[C@H](CCC(=O)O)NC(=O)[C@H](C)NC(=O)[C@@H](NC(=O)[C@H](C)N)C(C)C)C(=O)N[C@@H](CCC(N)=O)C(=O)N[C@@H](CC(C)C)C(=O)N[C@@H](CCSC)C(=O)N[C@@H](Cc1c[nH]cn1)C(=O)N[C@@H](CCC(N)=O)C(=O)N[C@@H](CCCCNC(=N)N)C(=O)N[C@@H](C)C(=O)N[C@@H](CCCCN)C(=O)N[C@@H](Cc1c[nH]c2ccccc12)C(N)=O, also called [M]PTH(1-14); parent) [[Ala^1,3,12,Gln^10,Har^11,Trp^14]PTH(1-14)NH2]",
    "IC50": "~3000 nM"
  },
  {
    "binder": "[Ac5c]V[Aib]EIQLMHQ[hArg]AKW-NH2 (also called [Ac5c^1,Aib^3,M]PTH(1-14)) [[Ac5c^1,Aib^3,Gln^10,Har^11,Ala^12,Trp^14]PTH(1-14)NH2]",
    "IC50": "100 nM"
  }
]
